Could you please report measured HEK-blue EC50 (pM) + 300 nM BP for the items listed next?
# SYSTEM UNDER TEST: T1, human IL-18 binding protein (human, UniProt O95998 31-194)
# T1 sequence (looked up): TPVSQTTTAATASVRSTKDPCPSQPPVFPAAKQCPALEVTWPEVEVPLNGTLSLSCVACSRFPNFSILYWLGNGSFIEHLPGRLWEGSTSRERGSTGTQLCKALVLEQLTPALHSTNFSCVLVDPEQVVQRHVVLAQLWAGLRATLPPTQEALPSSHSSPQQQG
# ASSAY OVERVIEW: cell-based or functional assay
Answer format: numeric, pM implied, no suffix.

input: Fill in: HEK-blue EC50 (pM) + 300 nM BP of human IL-18 variant G3T/K53S/M60K (ligand) YFTKLESKLSVIRNLNDQVLFIDQGNRPLFEDMTDSDMRDNAPRTIFIISMYSDSQPRGKAVTISVKSEKISTLSSENKIISFKEMNPPDNIKDTKSDIIFFQRSVPGHDNKMQFESSSYEGYFLASEKERDLFKLILKKEDELGDRSIMFTVQNED is ___
output: 4.99

input: Fill in: HEK-blue EC50 (pM) + 300 nM BP of human IL-18 variant G3V/M60K (ligand) YFVKLESKLSVIRNLNDQVLFIDQGNRPLFEDMTDSDMRDNAPRTIFIISMYKDSQPRGKAVTISVKSEKISTLSSENKIISFKEMNPPDNIKDTKSDIIFFQRSVPGHDNKMQFESSSYEGYFLASEKERDLFKLILKKEDELGDRSIMFTVQNED is ___
output: 0.507

input: Fill in: HEK-blue EC50 (pM) + 300 nM BP of human IL-18 variant G3T/K53A/M60K (ligand) YFTKLESKLSVIRNLNDQVLFIDQGNRPLFEDMTDSDMRDNAPRTIFIISMYADSQPRGKAVTISVKSEKISTLSSENKIISFKEMNPPDNIKDTKSDIIFFQRSVPGHDNKMQFESSSYEGYFLASEKERDLFKLILKKEDELGDRSIMFTVQNED is ___
output: 1.01

input: Fill in: HEK-blue EC50 (pM) + 300 nM BP of human IL-18 variant G3V/E6K/K53A (ligand) YFVKLKSKLSVIRNLNDQVLFIDQGNRPLFEDMTDSDMRDNAPRTIFIISMYADSQPRGMAVTISVKSEKISTLSSENKIISFKEMNPPDNIKDTKSDIIFFQRSVPGHDNKMQFESSSYEGYFLASEKERDLFKLILKKEDELGDRSIMFTVQNED is ___
output: 1.68

input: Fill in: HEK-blue EC50 (pM) + 300 nM BP of human IL-18 variant G3V/E6K/K53A/M60K (ligand) YFVKLKSKLSVIRNLNDQVLFIDQGNRPLFEDMTDSDMRDNAPRTIFIISMYADSQPRGKAVTISVKSEKISTLSSENKIISFKEMNPPDNIKDTKSDIIFFQRSVPGHDNKMQFESSSYEGYFLASEKERDLFKLILKKEDELGDRSIMFTVQNED is ___
output: 0.033
